# System: Escherichia coli TOP10
# Protocol Notes: shrunken log2 fold change of peptide-encoding DNA abundance (4.5 h post-induction vs induction); higher = less antimicrobial activity (less host growth inhibition)
# Condition: time post-induction: 4.5 h; library: site-saturation at positions 5, 18, 19, 20
Assign met to entries whose shrunken log2 fold change meets or exceeds -0.08; assign not met to the rest.

Qu. Please check the record "RRIRHRPPRLPRPRPRPQSLPRP" and state if its shrunken log2 fold change is at or above -0.08.
Ans. met

Qu. shrunken log2 fold change >= -0.08 for "RRIRNRPPRLPRPRPRPDPHPRP" ?
Ans. not met

Qu. API: above_or_equal(metric=shrunken log2 fold change, cutoff=-0.08) for item "RRIRCRPPRLPRPRPRPIINPRP"
Ans. not met

Qu. Evaluate "RRIRNRPPRLPRPRPRPLFKPRP" : shrunken log2 fold change at minimum -0.08?
Ans. not met

Qu. Quick check: does "RRIRKRPPRLPRPRPRPQCYPRP" have shrunken log2 fold change greater than or equal to -0.08?
Ans. not met

Qu. Given "RRIRKRPPRLPRPRPRPWSPPRP" , state whether its shrunken log2 fold change is at least -0.08.
Ans. met

Qu. Hello, I need to know if "RRIRIRPPRLPRPRPRPNYVPRP" has measured shrunken log2 fold change not below -0.08. Thanks!
Ans. not met

Qu. Item "RRIRGRPPRLPRPRPRPYTMPRP" with shrunken log2 fold change of -0.08 or above?
Ans. not met

Qu. Answer whether shrunken log2 fold change of "RRIRFRPPRLPRPRPRPKCWPRP" is greater than or equal to -0.08.
Ans. met

Qu. Please check the record "RRIRMRPPRLPRPRPRPTMLPRP" and state if its shrunken log2 fold change is at or above -0.08.
Ans. met

Qu. Please indicate if the recorded shrunken log2 fold change for "RRIRARPPRLPRPRPRPINSPRP" meets or exceeds -0.08.
Ans. not met

Qu. Is the recorded value of shrunken log2 fold change equal to or greater than -0.08 for this sequence? "RRIRFRPPRLPRPRPRPRYDPRP"
Ans. not met

Qu. Is shrunken log2 fold change at least -0.08? Consider "RRIRSRPPRLPRPRPRPLKCPRP"
Ans. not met

Qu. Could you please find out whether "RRIRTRPPRLPRPRPRPILEPRP" has shrunken log2 fold change that meets -0.08 or exceeds it?
Ans. met

Qu. Given "RRIRHRPPRLPRPRPRPLTSPRP" , state whether its shrunken log2 fold change is at least -0.08.
Ans. not met

Qu. Does "RRIRPRPPRLPRPRPRPKSKPRP" have a reported shrunken log2 fold change of at least -0.08?
Ans. not met

---

Please provide measured shrunken log2 fold change for the entries that follow.
# Test system: Escherichia coli TOP10
# Protocol Notes: shrunken log2 fold change of peptide-encoding DNA abundance (4.5 h post-induction vs induction); higher = less antimicrobial activity (less host growth inhibition)
# Condition: time post-induction: 4.5 h; library: site-saturation at positions 5, 18, 19, 20
Please give only the number in your answer, with no unit.

Qu. // map "RRIRQRPPRLPRPRPRPFAQPRP" to recorded shrunken log2 fold change (system: Escherichia coli TOP10)
Ans. -0.0906

Qu. What reported shrunken log2 fold change corresponds to "RRIRGRPPRLPRPRPRPENLPRP" on Escherichia coli TOP10?
Ans. -0.0405

Qu. # query: shrunken log2 fold change | item "RRIRGRPPRLPRPRPRPRHAPRP" | system: Escherichia coli TOP10
Ans. 1.05

Qu. What measured shrunken log2 fold change is associated with "RRIRIRPPRLPRPRPRPDWQPRP" on Escherichia coli TOP10?
Ans. -0.00422

Qu. Identify the measured shrunken log2 fold change of "RRIRNRPPRLPRPRPRPRTWPRP" for Escherichia coli TOP10.
Ans. 0.415

Qu. Item: "RRIRSRPPRLPRPRPRPDGEPRP" Test system: Escherichia coli TOP10 Read-out: shrunken log2 fold change Value: ?
Ans. 0.0597

Qu. Hello, I am looking for reported shrunken log2 fold change with Escherichia coli TOP10 for "RRIRHRPPRLPRPRPRPPPDPRP" . Could you help?
Ans. 0.646

Qu. # get_value(readout= shrunken log2 fold change, system= Escherichia coli TOP10) for "RRIRWRPPRLPRPRPRPDCVPRP"
Ans. 0.197

Qu. Find shrunken log2 fold change (Escherichia coli TOP10) for the entry "RRIRNRPPRLPRPRPRPAITPRP"
Ans. 0.134

Qu. What reported shrunken log2 fold change corresponds to "RRIRWRPPRLPRPRPRPNFWPRP" on Escherichia coli TOP10?
Ans. 0.224

Qu. // map "RRIRLRPPRLPRPRPRPVMKPRP" to recorded shrunken log2 fold change (system: Escherichia coli TOP10)
Ans. -0.13

Qu. Form: Entry = "RRIRERPPRLPRPRPRPMQSPRP" | System = Escherichia coli TOP10 | shrunken log2 fold change = ____
Ans. 0.0874

Qu. Entry "RRIRWRPPRLPRPRPRPRAFPRP" , system Escherichia coli TOP10: what shrunken log2 fold change was measured?
Ans. 0.57

Qu. Query shrunken log2 fold change on Escherichia coli TOP10 for "RRIRHRPPRLPRPRPRPLFTPRP"
Ans. -0.699

Qu. Provide the documented shrunken log2 fold change with Escherichia coli TOP10 as the system for "RRIRSRPPRLPRPRPRPRLVPRP"
Ans. 0.356

Qu. Identify the measured shrunken log2 fold change of "RRIRRRPPRLPRPRPRPIGEPRP" for Escherichia coli TOP10.
Ans. -0.00811

Qu. Lookup: shrunken log2 fold change / Escherichia coli TOP10 / "RRIRTRPPRLPRPRPRPYWMPRP"
Ans. -0.707

Qu. For the record "RRIRMRPPRLPRPRPRPPWRPRP" , what value of shrunken log2 fold change is listed for Escherichia coli TOP10?
Ans. 1.34

Qu. Give recorded shrunken log2 fold change with Escherichia coli TOP10 for the following sequence: "RRIRSRPPRLPRPRPRPNRRPRP"
Ans. -0.0429

Qu. Quick check: shrunken log2 fold change on Escherichia coli TOP10, item "RRIRERPPRLPRPRPRPKMMPRP" ?
Ans. -0.153

Qu. Enter reported shrunken log2 fold change observed with Escherichia coli TOP10 for "RRIRGRPPRLPRPRPRPRITPRP"
Ans. 0.792

Qu. // fetch Escherichia coli TOP10 shrunken log2 fold change for "RRIRFRPPRLPRPRPRPGMMPRP"
Ans. -0.216

Qu. Value wanted: shrunken log2 fold change (Escherichia coli TOP10) of entry "RRIRPRPPRLPRPRPRPFRKPRP"
Ans. -0.0819

Qu. Hi! What's the reported shrunken log2 fold change for "RRIRQRPPRLPRPRPRPSNIPRP" on Escherichia coli TOP10?
Ans. -0.286

Qu. API: value(readout= shrunken log2 fold change, system= Escherichia coli TOP10, query= "RRIRTRPPRLPRPRPRPLKTPRP" )
Ans. -0.0866

Qu. Lab note: need shrunken log2 fold change for "RRIRSRPPRLPRPRPRPMSPPRP" on Escherichia coli TOP10, anyone have it?
Ans. -0.125

Qu. // map "RRIRQRPPRLPRPRPRPHFFPRP" to recorded shrunken log2 fold change (system: Escherichia coli TOP10)
Ans. -0.0162

Qu. // fetch Escherichia coli TOP10 shrunken log2 fold change for "RRIRMRPPRLPRPRPRPTCWPRP"
Ans. 0.816

Qu. Requested read-out shrunken log2 fold change, target or system Escherichia coli TOP10, entry "RRIRLRPPRLPRPRPRPRDLPRP"
Ans. 0.0268

Qu. Give recorded shrunken log2 fold change with Escherichia coli TOP10 for the following sequence: "RRIRFRPPRLPRPRPRPMGPPRP"
Ans. -0.238

Qu. API: value(readout= shrunken log2 fold change, system= Escherichia coli TOP10, query= "RRIRTRPPRLPRPRPRPNYQPRP" )
Ans. -0.362

Qu. Return shrunken log2 fold change measured with Escherichia coli TOP10 given this sequence: "RRIRMRPPRLPRPRPRPQDMPRP"
Ans. -0.0638

Qu. Recorded shrunken log2 fold change for "RRIRLRPPRLPRPRPRPGHGPRP" with Escherichia coli TOP10, please?
Ans. -0.00133

Qu. Lab note: need shrunken log2 fold change for "RRIRYRPPRLPRPRPRPVKYPRP" on Escherichia coli TOP10, anyone have it?
Ans. -0.135

---

Hi there, I'd appreciate the recorded shrunken log2 fold change for every entry that follows.
# Test system: Escherichia coli TOP10;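 further: peptides expressed intracellularly from a pBAD plasmid library in pooled LB shake-flask culture, induced with 0.3% L-arabinose, DNA abundance read by NGS, three biological replicates, DESeq2 with apeglm shrinkage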
# Protocol Notes: shrunken log2 fold change of peptide-encoding DNA abundance (4.5 h post-induction vs induction); higher = less antimicrobial activity (less host growth inhibition)
# Condition: time post-induction: 4.5 h; library: site-saturation at positions 5, 18, 19, 20
Respond with the number and no other words.

Qu. Record request: shrunken log2 fold change value, item "RRIRRRPPRLPRPRPRPCGCPRP"
Ans. 0.0953

Qu. Endpoint output: shrunken log2 fold change of "RRIRMRPPRLPRPRPRPFFQPRP" . Value?
Ans. -0.134

Qu. Please report the recorded shrunken log2 fold change for "RRIRNRPPRLPRPRPRPYQWPRP" .
Ans. -0.098

Qu. Fill in the blank: the reported shrunken log2 fold change of "RRIRTRPPRLPRPRPRPQVYPRP" is ____.
Ans. -0.168

Qu. I'd like to know its shrunken log2 fold change. The sequence in question is "RRIRTRPPRLPRPRPRPRAPPRP"
Ans. 0.511

Qu. What value of measured shrunken log2 fold change is listed for "RRIRYRPPRLPRPRPRPTCGPRP" ?
Ans. 0.0163

Qu. Which shrunken log2 fold change is reported for this sequence? "RRIRFRPPRLPRPRPRPWNWPRP"
Ans. 0.0169

Qu. Please give the measured shrunken log2 fold change for this sequence: "RRIRRRPPRLPRPRPRPASKPRP"
Ans. 0.276

Qu. Record request: shrunken log2 fold change value, item "RRIRNRPPRLPRPRPRPHMFPRP"
Ans. -0.0579

Qu. Requested read-out: shrunken log2 fold change. Entry: "RRIRDRPPRLPRPRPRPLFWPRP"
Ans. 0.516

Qu. What value of measured shrunken log2 fold change is listed for "RRIRTRPPRLPRPRPRPMVTPRP" ?
Ans. 0.06

Qu. # lookup: shrunken log2 fold change of "RRIRARPPRLPRPRPRPDYQPRP"
Ans. -0.0168

Qu. Which shrunken log2 fold change is listed for "RRIRQRPPRLPRPRPRPFQHPRP" ?
Ans. -0.117

Qu. Which value of shrunken log2 fold change has been reported for "RRIRWRPPRLPRPRPRPWRPPRP" in the records?
Ans. 0.178

Qu. What value of shrunken log2 fold change has been recorded for this entry: "RRIRTRPPRLPRPRPRPKLCPRP"
Ans. 0.0416

Qu. GET /values?readout=shrunken log2 fold change&item= "RRIRWRPPRLPRPRPRPLSAPRP"
Ans. 0.553

Qu. Quick one: shrunken log2 fold change for "RRIRSRPPRLPRPRPRPLWLPRP" ?
Ans. -0.0472

Qu. Which shrunken log2 fold change reading was recorded for the sequence "RRIRKRPPRLPRPRPRPCCDPRP" ?
Ans. 0.217

Reference for the values: the supplement of paper PMC9112550
